test system: HeLa Kyoto; experiment: melting temperature (median over replicates), in situ; higher = more thermally stable; conditions: cell cycle stage: G1/S;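 further: HeLa Kyoto cells synchronized by double thymidine or nocodazole block, proteins quantified by TMT10plex mass spectrometry, three independent biological replicates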
PROPERTY_MEASURED: melting temperature (°C)

{"SUBSTANCE": "MSKYKLIMLRHGEGAWNKENRFCSWVDQKLNSEGMEEARNCGKQLKALNFEFDLVFTSVLNRSIHTAWLILEELGQEWVPVESSWRLNERHYGALIGLNREQMALNHGEEQVRLWRRSYNVTPPPIEESHPYYQEIYNDRRYKVCDVPLDQLPRSESLKDVLERLLPYWNERIAPEVLRGKTILISAHGNSSRALLKHLEGISDEDIINITLPTGVPILLELDENLRAVGPHQFLGDQEAIQAAIKKVEDQGKVKQAKK [BPGM]", "READOUT_NUMBER": 53.1}
{"SUBSTANCE": "MNIVVEFFVVTFKVLWAFVLAAARWLVRPKEKSVAGQVCLITGAGSGLGRLFALEFARRRALLVLWDINTQSNEETAGMVRHIYRDLEAADAAALQAGNGEEEILPHCNLQVFTYTCDVGKRENVYLTAERVRKEVGEVSVLVNNAGVVSGHHLLECPDELIERTMMVNCHAHFWTTKAFLPTMLEINHGHIVTVASSLGLFSTAGVEDYCASKFGVVGFHESLSHELKAAEKDGIKTTLVCPYLVDTGMFRGCRIRKEIEPFLPPLKPDYCVKQAMKAILTDQPMICTPRLMYIVTFMKSILPFEAVVCMYRFLGADKCMYPFIAQRKQATNNNEAKNGI [RDH10]", "READOUT_NUMBER": 53.4}
{"SUBSTANCE": "MASASGAMAKHEQILVLDPPTDLKFKGPFTDVVTTNLKLRNPSDRKVCFKVKTTAPRRYCVRPNSGIIDPGSTVTVSVMLQPFDYDPNEKSKHKFMVQTIFAPPNTSDMEAVWKEAKPDELMDSKLRCVFEMPNENDKLNDMEPSKAVPLNASKQDGPMPKPHSVSLNDTETRKLMEECKRLQGEMMKLSEENRHLRDEGLRLRKVAHSDKPGSTSTASFRDNVTSPLPSLLVVIAAIFIGFFLGKFIL [VAPA]", "READOUT_NUMBER": 54.1}
{"SUBSTANCE": "MAAPLRIQSDWAQALRKDEGEAWLSCHPPGKPSLYGSLTCQGIGLDGIPEVTASEGFTVNEINKKSIHISCPKENASSKFLAPYTTFSRIHTKSITCLDISSRGGLGVSSSTDGTMKIWQASNGELRRVLEGHVFDVNCCRFFPSGLVVLSGGMDAQLKIWSAEDASCVVTFKGHKGGILDTAIVDRGRNVVSASRDGTARLWDCGRSACLGVLADCGSSINGVAVGAADNSINLGSPEQMPSEREVGTEAKMLLLAREDKKLQCLGLQSRQLVFLFIGSDAFNCCTFLSGFLLLAGTQDGNIYQLDVRSPRAPVQVIHRSGAPVLSLLSVRDGFIASQGDGSCFIVQQDLDYVTELTGADCDPVYKVATWEKQIYTCCRDGLVRRYQLSDL [PAAF1]", "READOUT_NUMBER": 54}
{"SUBSTANCE": "RAPGEF2", "READOUT_NUMBER": 50.8}
{"SUBSTANCE": "MTDLVAVWDVALSDGVHKIEFEHGTTSGKRVVYVDGKEEIRKEWMFKLVGKETFYVGAAKTKATINIDAISGFAYEYTLEINGKSLKKYMEDRSKTTNTWVLHMDGENFRIVLEKDAMDVWCNGKKLETAGEFVDDGTETHFSIGNHDCYIKAVSSGKRKEGIIHTLIVDNREIPEIAS [FAIM]", "READOUT_NUMBER": 50.8}
{"SUBSTANCE": "MAASGKLSTCRLPPLPTIREIIKLLRLQAAKQLSQNFLLDLRLTDKIVRKAGNLTNAYVYEVGPGPGGITRSILNADVAELLVVEKDTRFIPGLQMLSDAAPGKLRIVHGDVLTFKVEKAFSESLKRPWEDDPPNVHIIGNLPFSVSTPLIIKWLENISCRDGPFVYGRTQMTLTFQKEVAERLAANTGSKQRSRLSVMAQYLCNVRHIFTIPGQAFVPKPEVDVGVVHFTPLIQPKIEQPFKLVEKVVQNVFQFRRKYCHRGLRMLFPEAQRLESTGRLLELADIDPTLRPRQLSISHFKSLCDVYRKMCDEDPQLFAYNFREELKRRKSKNEEKEEDDAENYRL [TFB1M]", "READOUT_NUMBER": 51.7}
{"SUBSTANCE": "MVLESTMVCVDNSEYMRNGDFLPTRLQAQQDAVNIVCHSKTRSNPENNVGLITLANDCEVLTTLTPDTGRILSKLHTVQPKGKITFCTGIRVAHLALKHRQGKNHKMRIIAFVGSPVEDNEKDLVKLAKRLKKEKVNVDIINFGEEEVNTEKLTAFVNTLNGKDGTGSHLVTVPPGPSLADALISSPILAGEGGAMLGLGASDFEFGVDPSADPELALALRVSMEEQRQRQEEEARRAAAASAAEAGIATTGTEDSDDALLKMTISQQEFGRTGLPDLSSMTEEEQIAYAMQMSLQGAEFGQAESADIDASSAMDTSEPAKEEDDYDVMQDPEFLQSVLENLPGVDPNNEAIRNAMGSLASQATKDGKKDKKEEDKK [PSMD4]", "READOUT_NUMBER": 53.3}
{"SUBSTANCE": "MVRPVRHKKPVNYSQFDHSDSDDDFVSATVPLNKKSRTAPKELKQDKPKPNLNNLRKEEIPVQEKTPKKRLPEGTFSIPASAVPCTKMALDDKLYQRDLEVALALSVKELPTVTTNVQNSQDKSIEKHGSSKIETMNKSPHISNCSVASDYLDLDKITVEDDVGGVQGKRKAASKAAAQQRKILLEGSDGDSANDTEPDFAPGEDSEDDSDFCESEDNDEDFSMRKSKVKEIKKKEVKVKSPVEKKEKKSKSKCNALVTSVDSAPAAVKSESQSLPKKVSLSSDTTRKPLEIRSPSAESKKPKWVPPAASGGSRSSSSPLVVVSVKSPNQSLRLGLSRLARVKPLHPNATST [RAD51AP1]", "READOUT_NUMBER": 53.8}
{"SUBSTANCE": "MEEIYAKFVSQKISKTRWRPLPPGSLQTAETFATGSWDNEENYISLWSIGDFGNLDSDGGFEGDHQLLCDIRHHGDVMDLQFFDQERIVAASSTGCVTVFLHHPNNQTLSVNQQWTTAHYHTGPGSPSYSSAPCTGVVCNNPEIVTVGEDGRINLFRADHKEAVRTIDNADSSTLHAVTFLRTPEILTVNSIGQLKIWDFRQQGNEPSQILSLTGDRVPLHCVDRHPNQQHVVATGGQDGMLSIWDVRQGTMPVSLLKAHEAEMWEVHFHPSNPEHLFTCSEDGSLWHWDASTDVPEKSSLFHQGGRSSTFLSHSISNQANVHQSVISSWLSTDPAKDRIEITSLLPSRSLSVNTLDVLGPCLVCGTDAEAIYVTRHLFS [NUP43]", "READOUT_NUMBER": 53.1}
